# tgt: Hck (UniProt P08631)
# Sequence (P08631 whole entry, looked up): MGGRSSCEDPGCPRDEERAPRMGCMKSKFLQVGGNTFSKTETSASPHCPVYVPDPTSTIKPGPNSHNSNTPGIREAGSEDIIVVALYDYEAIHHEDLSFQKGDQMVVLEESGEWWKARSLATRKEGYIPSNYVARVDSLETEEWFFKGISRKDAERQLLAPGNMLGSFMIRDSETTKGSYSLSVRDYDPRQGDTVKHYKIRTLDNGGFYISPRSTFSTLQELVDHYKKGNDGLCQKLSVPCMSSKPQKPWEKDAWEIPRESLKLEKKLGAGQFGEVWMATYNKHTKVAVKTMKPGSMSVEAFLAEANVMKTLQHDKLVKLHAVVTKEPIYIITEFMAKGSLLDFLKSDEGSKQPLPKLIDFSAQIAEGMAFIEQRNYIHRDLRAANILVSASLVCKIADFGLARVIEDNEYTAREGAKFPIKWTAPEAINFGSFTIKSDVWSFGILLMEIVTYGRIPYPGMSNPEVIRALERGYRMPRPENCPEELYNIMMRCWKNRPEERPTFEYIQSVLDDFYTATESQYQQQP
# method: phosphorylation enrichment, bacterial display (enrichment ratio); higher = better substrate or ligand; peptides without Tyr show the background;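 note: 11-residue human phosphosite peptides and single-mutation variants displayed on the E. coli surface, counted by deep sequencing, each peptide's frequency after selection divided by its frequency in the unselected input library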;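 note: frequency after pTyr selection over input frequency; kinase dosed for 20-30% of maximal phosphorylation in three min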
Just so you know, the groups by phosphorylation enrichment go like this: low value = under 0.5, medium value = from 0.5 up to 0.7, high value = 0.7 and over

Worked cases, answers included:
record_sequence: HFMELYDLNRD [BBS2_Y648_R643H_YF]
category: high value
//
record_sequence: KLFFIYTSGTT [SLC27A4_Y245_YF]
category: low value
//
record_sequence: SGPRRYTVAAL [TTR_Y125_I127V]
category: low value
//
record_sequence: RYVTRYIYNRE [HLA-DQB1_Y62]
category: high value
//
record_sequence: AEKPKYQISNI [TJP1_Y1602_N1605S]
category: low value
//
record_sequence: RAVLLYEFVGK [NATD1_Y45_YF]
category: high value
//
record_sequence: HNLDFYKQTTN [FGFR3_Y648_K650Q_YF]
category: low value
//
record_sequence: DGLASYLDKVR [KRT12_Y139_R135G]
category: low value
//
record_sequence: NSFKFYMSDDI [ATRX_Y204_C200S_YF]
category: medium value
//
record_sequence: RLLRGYDQSAY [HLA-C_Y137]
category: medium value

query: Would you mind sorting NGSKGYAFVHF [PABPC5_Y147_YF] into the appropriate category?
result: low value

query: Classify this sequence: NTCNRYCRDEI [ITGB3_Y660]
result: low value

query: Exercise: read the entry HNELYYEAAEH [VANGL1_Y345_E347A] and state which class it falls under.
result: high value

query: Which category fits this record: MGIMLYGVDSR [PKD1_Y3143_V3138M]
result: medium value

query: Please let me know in which category the item RENGPYYASYP [GDAP2_Y487_T489A] belongs.
result: high value

query: Please classify: LVSCTYQLATG [FGFR2_Y608_R612T]
result: medium value

* * *

# tgt: Jak2 (UniProt O60674)
# Sequence (O60674 whole entry, looked up): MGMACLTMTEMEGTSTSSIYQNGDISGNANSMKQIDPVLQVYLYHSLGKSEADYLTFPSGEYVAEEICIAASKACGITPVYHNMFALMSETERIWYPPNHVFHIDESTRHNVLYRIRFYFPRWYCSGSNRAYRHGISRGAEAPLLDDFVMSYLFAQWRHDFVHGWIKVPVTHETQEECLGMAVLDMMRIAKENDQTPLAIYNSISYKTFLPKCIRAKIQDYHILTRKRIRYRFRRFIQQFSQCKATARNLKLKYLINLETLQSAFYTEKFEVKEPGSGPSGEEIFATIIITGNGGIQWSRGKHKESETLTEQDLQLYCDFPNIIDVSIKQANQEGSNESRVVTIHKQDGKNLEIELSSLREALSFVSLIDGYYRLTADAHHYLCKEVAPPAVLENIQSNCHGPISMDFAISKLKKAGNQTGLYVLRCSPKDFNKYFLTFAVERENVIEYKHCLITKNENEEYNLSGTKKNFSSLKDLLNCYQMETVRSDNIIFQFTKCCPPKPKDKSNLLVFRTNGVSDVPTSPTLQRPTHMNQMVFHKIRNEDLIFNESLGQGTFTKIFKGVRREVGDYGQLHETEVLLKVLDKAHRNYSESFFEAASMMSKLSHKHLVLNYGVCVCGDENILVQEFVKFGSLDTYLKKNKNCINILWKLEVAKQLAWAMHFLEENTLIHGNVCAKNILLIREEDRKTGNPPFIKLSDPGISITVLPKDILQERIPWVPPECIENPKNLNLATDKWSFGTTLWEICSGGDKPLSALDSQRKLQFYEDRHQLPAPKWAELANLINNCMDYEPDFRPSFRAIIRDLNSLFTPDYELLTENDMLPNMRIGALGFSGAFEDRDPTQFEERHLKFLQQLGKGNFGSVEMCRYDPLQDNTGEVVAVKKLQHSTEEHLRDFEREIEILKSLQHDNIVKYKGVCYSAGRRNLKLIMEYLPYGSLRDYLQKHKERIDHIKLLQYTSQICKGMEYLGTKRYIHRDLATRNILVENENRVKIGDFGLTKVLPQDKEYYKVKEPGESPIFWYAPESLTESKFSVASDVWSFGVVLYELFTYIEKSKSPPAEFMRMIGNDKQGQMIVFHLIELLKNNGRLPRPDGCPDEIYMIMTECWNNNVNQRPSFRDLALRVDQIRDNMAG
# method: phosphorylation enrichment, bacterial display (enrichment ratio); higher = better substrate or ligand; peptides without Tyr show the background
Tag: t if measured phosphorylation enrichment is not below 0.8, f if it is.

query: Check this sequence for phosphorylation enrichment at or above 0.8: DYLEKYYKFGC [NNMT_Y24_S29C]
result: t

query: Could you tell me if the measured phosphorylation enrichment of FGLQAYTKVKT [ALDH2_Y502_E504K_YF] reaches 0.8 or more?
result: t

query: # bool: phosphorylation enrichment of FSPGSYERETF [NF1_Y2192] >= 0.8
result: f

query: Would you say GVPLGYPIKAS [ELN_Y206_P211S] shows phosphorylation enrichment at minimum 0.8?
result: f

* * *

# tgt: MERTK (UniProt Q12866)
# Sequence (Q12866 whole entry, looked up): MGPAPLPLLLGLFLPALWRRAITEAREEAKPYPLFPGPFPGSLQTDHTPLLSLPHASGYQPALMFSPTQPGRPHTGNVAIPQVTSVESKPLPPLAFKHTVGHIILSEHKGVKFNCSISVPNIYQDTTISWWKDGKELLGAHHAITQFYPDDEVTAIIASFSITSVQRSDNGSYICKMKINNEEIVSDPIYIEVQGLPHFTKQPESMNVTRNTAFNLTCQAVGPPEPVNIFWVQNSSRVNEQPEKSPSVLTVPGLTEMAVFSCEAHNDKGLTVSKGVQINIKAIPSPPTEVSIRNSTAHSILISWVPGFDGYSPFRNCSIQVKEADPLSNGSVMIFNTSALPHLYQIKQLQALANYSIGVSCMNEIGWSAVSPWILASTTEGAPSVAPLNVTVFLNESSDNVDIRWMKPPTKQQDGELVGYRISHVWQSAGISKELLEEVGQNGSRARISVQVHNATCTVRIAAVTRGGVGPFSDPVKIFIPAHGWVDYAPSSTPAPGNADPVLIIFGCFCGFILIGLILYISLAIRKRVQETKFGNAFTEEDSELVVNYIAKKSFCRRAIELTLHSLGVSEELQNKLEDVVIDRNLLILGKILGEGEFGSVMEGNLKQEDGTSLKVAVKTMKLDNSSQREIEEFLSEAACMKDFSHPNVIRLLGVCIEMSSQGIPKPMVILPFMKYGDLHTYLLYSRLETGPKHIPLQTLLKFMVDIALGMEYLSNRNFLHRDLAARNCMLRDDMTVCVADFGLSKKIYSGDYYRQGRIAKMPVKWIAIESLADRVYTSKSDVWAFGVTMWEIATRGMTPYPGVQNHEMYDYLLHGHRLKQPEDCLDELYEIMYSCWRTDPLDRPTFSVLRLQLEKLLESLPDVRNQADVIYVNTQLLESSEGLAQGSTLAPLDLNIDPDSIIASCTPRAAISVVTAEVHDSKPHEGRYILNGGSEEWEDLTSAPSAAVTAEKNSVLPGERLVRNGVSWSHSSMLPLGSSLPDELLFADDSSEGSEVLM
# method: phosphorylation enrichment, bacterial display (enrichment ratio); higher = better substrate or ligand; peptides without Tyr show the background
// thresholds for phosphorylation enrichment classes: lower range: < 0.4; middle range: ≥ 0.4 and < 0.6; upper range: ≥ 0.6

Would you please look over these solved cases?
record_sequence: TTSQPYRRLCS [USH2A_Y534_C536R]
category: lower range
--
record_sequence: REEKNYKLKET [BCLAF1_Y459]
category: upper range
--
record_sequence: IDSTPYRQWFE [RPS8_Y109_YF]
category: lower range

query: Which bin should I file TDKLFYIFTPG [SLC27A4_Y243_S247P_YF] under?
result: upper range

query: Category of KDIENHIQDGK [RAD50_Y964_Y964H] , please.
result: middle range

query: Bin this entry: EPFKVYRIVPE [IRF8_Y110_YF]
result: middle range

query: Exam item: assign SILAVYSKDNF [PANK2_Y400_YF] to the correct category.
result: upper range

query: Which phosphorylation enrichment band matches ELTSVYGSRAR [SENP1_Y349_D350G] ?
result: middle range

query: Hi there! Could you help me figure out the category for GSRGKYSSGFH [ATM_Y332_R337H] please?
result: middle range

query: Category of METKGYQSLPE [NR3C2_Y6_H7Q] , please.
result: lower range

query: Which of the defined bands does the recorded phosphorylation enrichment of QRRYVYYYSYL [PTEN_Y176] sit within?
result: upper range

query: Could you place LNTFHHAGVSA [POLR2A_Y1109_Y1109H] in its proper category? Many thanks.
result: upper range

query: Assign a category based on measured phosphorylation enrichment for REIIAYQPFGK [PRKCG_Y529_P524R_YF] and give only the class name.
result: lower range

query: Sort TNYRFYLRSLE [MTM1_Y71_L70F] into one of the categories.
result: middle range

* * *

Reported phosphorylation enrichment values follow for various sequences
# tgt: Fes (UniProt P07332)
# Sequence (P07332 whole entry, looked up): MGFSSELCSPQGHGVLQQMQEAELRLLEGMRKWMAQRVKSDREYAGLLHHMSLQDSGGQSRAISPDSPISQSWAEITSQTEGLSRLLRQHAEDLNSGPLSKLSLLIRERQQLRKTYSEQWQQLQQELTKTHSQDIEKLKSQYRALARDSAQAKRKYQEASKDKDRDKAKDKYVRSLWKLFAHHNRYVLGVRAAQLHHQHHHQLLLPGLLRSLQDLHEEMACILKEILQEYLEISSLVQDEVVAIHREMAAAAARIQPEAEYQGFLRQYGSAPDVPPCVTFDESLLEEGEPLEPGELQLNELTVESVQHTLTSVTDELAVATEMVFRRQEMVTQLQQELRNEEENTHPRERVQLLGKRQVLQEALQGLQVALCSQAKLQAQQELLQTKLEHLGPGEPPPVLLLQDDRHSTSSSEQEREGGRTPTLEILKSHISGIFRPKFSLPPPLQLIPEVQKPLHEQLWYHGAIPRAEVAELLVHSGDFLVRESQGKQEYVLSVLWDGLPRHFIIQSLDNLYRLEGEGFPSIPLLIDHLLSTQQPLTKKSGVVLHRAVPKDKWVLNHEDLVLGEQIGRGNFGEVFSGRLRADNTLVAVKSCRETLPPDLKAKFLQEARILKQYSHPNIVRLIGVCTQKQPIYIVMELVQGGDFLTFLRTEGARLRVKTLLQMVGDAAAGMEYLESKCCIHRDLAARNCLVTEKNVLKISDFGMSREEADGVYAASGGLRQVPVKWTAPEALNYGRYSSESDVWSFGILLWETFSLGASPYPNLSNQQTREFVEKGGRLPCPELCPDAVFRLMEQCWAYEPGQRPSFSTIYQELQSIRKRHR
# method: phosphorylation enrichment, bacterial display (enrichment ratio); higher = better substrate or ligand; peptides without Tyr show the background
// response body must contain only the number

Field: example entries. Status: answers known.
record_sequence: SGDDGYAKDAK [TENM4_Y1530]
recorded_metric: phosphorylation enrichment
obs_value: 0.741
--
record_sequence: DDEENYENVPR [FCRL3_Y722]
recorded_metric: phosphorylation enrichment
obs_value: 1.19
--
record_sequence: IFKAAYFGVFD [SLC25A4_Y191_R188K_YF]
recorded_metric: phosphorylation enrichment
obs_value: 1.21
--
record_sequence: DRLASDLDKVR [KRT10_Y160_Y160D]
recorded_metric: phosphorylation enrichment
obs_value: 0.661
--
record_sequence: KNITEYCRHLI [RECQL_Y492_D495H]
recorded_metric: phosphorylation enrichment
obs_value: 0.855
--
record_sequence: SVVVPYEPPEG [TP53_Y220_V225G]
recorded_metric: phosphorylation enrichment
obs_value: 0.929

Now let's try a different one.
query: For PVKDGYQMAQP [CSF1R_Y873_L868P] , what is its reported phosphorylation enrichment?
result: 1.11

* * *

# tgt: EPHB2 (UniProt P29323)
# Sequence (P29323 whole entry, looked up): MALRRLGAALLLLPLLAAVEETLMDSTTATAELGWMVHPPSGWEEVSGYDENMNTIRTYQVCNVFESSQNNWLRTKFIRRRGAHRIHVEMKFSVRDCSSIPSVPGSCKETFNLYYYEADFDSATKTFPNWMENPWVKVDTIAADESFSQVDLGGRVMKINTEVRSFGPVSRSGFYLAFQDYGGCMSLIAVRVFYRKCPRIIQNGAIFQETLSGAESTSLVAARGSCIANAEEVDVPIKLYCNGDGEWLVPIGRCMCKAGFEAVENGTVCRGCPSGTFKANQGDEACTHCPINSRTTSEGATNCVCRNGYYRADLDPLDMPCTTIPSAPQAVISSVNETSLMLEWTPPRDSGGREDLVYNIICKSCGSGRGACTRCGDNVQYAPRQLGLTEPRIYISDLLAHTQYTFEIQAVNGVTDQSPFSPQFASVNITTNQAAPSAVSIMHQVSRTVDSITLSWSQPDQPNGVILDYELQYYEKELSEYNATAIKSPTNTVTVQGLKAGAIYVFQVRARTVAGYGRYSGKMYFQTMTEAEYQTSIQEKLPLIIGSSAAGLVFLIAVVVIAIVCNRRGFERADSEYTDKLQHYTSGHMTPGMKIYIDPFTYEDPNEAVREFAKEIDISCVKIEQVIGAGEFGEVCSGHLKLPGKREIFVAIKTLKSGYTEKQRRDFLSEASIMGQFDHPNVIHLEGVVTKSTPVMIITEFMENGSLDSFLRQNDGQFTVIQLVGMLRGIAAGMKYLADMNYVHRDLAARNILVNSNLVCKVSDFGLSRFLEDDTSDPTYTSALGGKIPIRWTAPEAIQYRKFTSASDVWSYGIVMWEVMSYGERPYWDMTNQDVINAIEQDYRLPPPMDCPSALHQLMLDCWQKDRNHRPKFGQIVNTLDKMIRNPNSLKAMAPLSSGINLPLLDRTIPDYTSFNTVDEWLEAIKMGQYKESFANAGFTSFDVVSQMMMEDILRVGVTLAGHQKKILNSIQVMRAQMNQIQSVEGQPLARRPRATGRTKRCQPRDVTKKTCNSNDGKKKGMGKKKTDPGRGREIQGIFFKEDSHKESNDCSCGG
# method: phosphorylation enrichment, bacterial display (enrichment ratio); higher = better substrate or ligand; peptides without Tyr show the background
Recorded phosphorylation enrichment by entry
Lab note: record just the number, no unit beside it.

# example entries with known answers
record_sequence: HNELYYEAAEH [VANGL1_Y345_E347A]
tgt: EPHB2 (UniProt P29323)
phosphorylation enrichment: 1.06
//
record_sequence: SFDLDYDSVQP [MYC_Y16_N11S_YF]
tgt: EPHB2 (UniProt P29323)
phosphorylation enrichment: 0.911

query: # returns recorded phosphorylation enrichment (system: EPHB2 (UniProt P29323)) for YVPSNYVAEDR [FRK_Y104_I100V]
result: 0.424

query: Lab note: need phosphorylation enrichment for TYGNLYGSRKQ [YIPF7_Y59_A54T] on EPHB2 (UniProt P29323), anyone have it?
result: 0.74

query: Short answer please: phosphorylation enrichment, EPHB2 (UniProt P29323), entry QGQHWYSSSDT [CASP10_Y9_K14T]
result: 0.929

query: State its phosphorylation enrichment on EPHB2 (UniProt P29323): RQQQDYWLKDV [ANPEP_Y600_I603K]
result: 0.556

query: Query the reported phosphorylation enrichment for EPHB2 (UniProt P29323); item: KDIENHIQDGK [RAD50_Y964_Y964H]
result: 0.542

query: For the record FSSLGYPLPEG [ZSWIM4_Y87_P89L_YF] , what value of phosphorylation enrichment is listed for EPHB2 (UniProt P29323)?
result: 0.446

query: Recall the recorded phosphorylation enrichment for FKDGQYWIRGR [ACSF3_Y466] with EPHB2 (UniProt P29323) and state it.
result: 0.369

query: Could you share what phosphorylation enrichment was measured for NGRTGYVLQPE [PLCG2_Y1036] , tested on EPHB2 (UniProt P29323)?
result: 0.384

* * *

# tgt: Fyn (UniProt P06241)
# Sequence (P06241 whole entry, looked up): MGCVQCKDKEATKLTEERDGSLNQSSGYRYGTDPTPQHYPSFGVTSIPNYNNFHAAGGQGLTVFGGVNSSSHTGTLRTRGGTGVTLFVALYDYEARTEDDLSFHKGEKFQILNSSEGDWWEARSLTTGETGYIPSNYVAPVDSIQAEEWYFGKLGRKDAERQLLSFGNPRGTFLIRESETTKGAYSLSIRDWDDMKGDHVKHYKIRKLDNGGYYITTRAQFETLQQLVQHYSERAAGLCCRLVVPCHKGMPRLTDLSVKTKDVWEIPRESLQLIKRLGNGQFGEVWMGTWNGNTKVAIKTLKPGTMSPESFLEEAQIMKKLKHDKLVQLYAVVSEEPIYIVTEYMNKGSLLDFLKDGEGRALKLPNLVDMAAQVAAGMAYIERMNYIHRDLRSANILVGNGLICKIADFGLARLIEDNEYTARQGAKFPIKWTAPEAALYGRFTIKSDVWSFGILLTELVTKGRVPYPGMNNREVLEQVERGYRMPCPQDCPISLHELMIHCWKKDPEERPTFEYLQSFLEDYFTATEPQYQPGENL
# method: phosphorylation enrichment, bacterial display (enrichment ratio); higher = better substrate or ligand; peptides without Tyr show the background
Quick list: phosphorylation enrichment per entry.
// keep it numeric: no unit symbol after the value

Below are worked cases with known answers.
record_sequence: GRSTCYWPRPR [GAGE12J_Y10_Y9C]
recorded_metric: phosphorylation enrichment
obs_value: 0.543
--
record_sequence: KKFFSYAWPFF [BRDT_Y291_H288Y_YF]
recorded_metric: phosphorylation enrichment
obs_value: 0.555
--
record_sequence: EKIANYKEGTY [CLRN1_Y171]
recorded_metric: phosphorylation enrichment
obs_value: 0.546

query: Dear colleague, I am looking for the recorded phosphorylation enrichment of the following sequence: KSPDSYQKILP [ATM_Y1415_L1420P]
result: 0.427

query: # input sequence: LLNAIYLSAKR [SERPING1_Y294_W299R] ; wanted: its phosphorylation enrichment
result: 0.86

query: phosphorylation enrichment for LSVMSYDLGMF [GBA3_Y174] ?
result: 0.759

query: I'd like to know its phosphorylation enrichment. The sequence in question is VRVQLYDPDYM [CYP4A22_Y100]
result: 0.493
